Tested on: U251 CNS
Experiment: NCI-60 one-dose screen, 48 h
Settings: 10 µM unless noted
Compounds without any hit were thinned out: in the full panel of roughly 83,000, 20% have a hit. The source made the active and inactive calls. Rule for the calls: active = growth percent below 10; inactive = the rest.
In this exercise, the only acceptable responses are 1 for active, -1 for inactive

Compound: CC(C)[C@H]1CCC2=C3CC[C@]45OC(=O)[C@@]6(CCC(C)(C)C[C@H]64)CC[C@@]5(C)[C@]3(C)CC[C@@]21C
Classification: -1
--
Compound: O=S(=O)(NCc1ccccc1)c1ncnc2nc[nH]c12
Classification: -1
--
Compound: O=C(C[n+]1ccn(CC(OCc2ccc(Cl)cc2Cl)c2ccc(Cl)cc2Cl)c1)c1ccc(F)cc1 (configuration not stated)
Classification: 1
--
Compound: O=c1[nH]cnc2c1ccn2C1OC(CO)C(O)C1O (configuration not stated)
Classification: -1
--
Compound: CCN(CC)c1ccc2cc(NC(=O)OCCNC(=O)CCNC(=O)[C@H](CC(C)C)NC(=O)C(C)(C)NC(=O)C(C)(C)NC(=O)[C@H](CC(C)C)NC(=O)CCNC(=O)C(C)(C)NC(=O)[C@H](CC(C)C)NC(=O)CCNC(=O)[C@@](C)(CC)NC(=O)[C@H](C)NC(=O)CCNC(=O)C(C)(C)NC(=O)[C@H](C)NC(=O)[C@@H]3CCCN3C(=O)[C@@](C)(CC)NC(=O)[C@H](Cc3ccccc3)NC(=O)C3CCCN3C(=O)C(C)(C)NC(=O)C3CCCN3C(=O)C(C)(C)NC(C)=O)c(=O)oc2c1 (some centres not stated)
Classification: 1

input: Kindly provide the recorded test outcome for the following compound: `CCOC(=O)c1ccc2nc(-c3c(C)nn(-c4ccccc4)c3N3CCOCC3)[nH]c2c1`
output: -1

input: Any idea what this test logged for `O=C(NCc1ccccc1)C(Cl)Cl` ?
output: -1

input: State the result this test recorded for `O=S(=O)(NCCNc1nccc(-c2c(-c3cccc(F)c3)nc3occn23)n1)c1ccc(C(F)(F)F)cc1` .
output: -1

----------
Test system: NCI-H460 lung
Experiment: NCI-60 one-dose screen, 48 h (100 = growth as untreated, 0 = no growth, -100 = all killed)
Settings: 10 µM unless noted
Compounds without any hit were thinned out: in the full panel of roughly 83,000, 20% have a hit.
Attribute Measured: growth (%)
# value in %; strip the unit string

Worked cases, growth given:
Compound: COc1ccc(C(=O)CCC(=O)O)cc1
System Name: NCI-H460 lung
growth [%]: 101
--
Compound: CC1=CC[C@@H]2C(C)(C)[C@@H](O)CC[C@@]2(C)[C@@H]1COc1ccc2ccc(=O)oc2c1
System Name: NCI-H460 lung
growth [%]: 88.6

Record `CCNc1cc2c(cc1Br)-c1ccccc1C2=O` . Reported growth: 96.8

Value of growth reported for the compound COc1ccc(C2NC(=O)C(C#N)c3c2sc2c(F)cccc32)cc1 (stereo unspecified) is 28.6

Per the records, this compound ( `COc1cc(-c2nc(SCCC(C)C)nc(Nc3ccccc3)c2C#N)cc(OC)c1OC` ) has growth equal to 101

Note to self: growth recorded for `ClC1=C(Cl)C(Cl)=C(Cl)C1=Cc1ccccc1` was -52.6

----------
System: TK-10 renal
Test: NCI-60 one-dose screen, 48 h (100 = growth as untreated, 0 = no growth, -100 = all killed)
Conditions: 10 µM unless noted
About 83,000 compounds went through this panel and 20% of them were active in at least one assay; those are over-represented in the sample as a whole.
Attribute Measured: growth (%)
Number in %, nothing else.

Compound: CC1=C/C(=C(\c2cc(C)c(O)c(C(=O)O)c2)c2c(Cl)cccc2Cl)C=C(C(=O)O)C1=O
growth (%): 108

Compound: Cn1ncc2c(Nc3ccc(O)cc3)nc(Cl)nc21
growth (%): 102

Compound: Cc1c(Cn2cc(COc3ccc(Br)cc3)nn2)c(C)c(Cn2cc(COc3ccc(Br)cc3)nn2)c(C)c1Cn1cc(COc2ccc(Br)cc2)nn1
growth (%): 67.4

Compound: CCN(CC)c1ccc2cc(C(Nc3ccc(C)cc3)c3nnnn3C(C)(C)C)c(=O)oc2c1 (centres undefined)
growth (%): 90.7

Compound: Nc1cc(NN=C(c2ccc(O)cc2)c2ccc(O)cc2)c([N+](=O)[O-])cc1[N+](=O)[O-]
growth (%): 84.3

Compound: O=C1COCCN1c1ccc(NCc2cn(Cc3cccc4ccccc34)c3ccccc23)cc1
growth (%): 44.4

Compound: Cc1nn(-c2ccccc2)c(N2CCOCC2)c1-c1nc2ccc([N+](=O)[O-])cc2[nH]1
growth (%): 100

Compound: CCOC(=O)/C(C#N)=C(\C)CCc1ccccc1
growth (%): 140

Hey, TK-10 renal data for `CNC(=O)c1cc(Oc2cccc3nc(NC(=O)Nc4cc(C(F)(F)F)cc(C(F)(F)F)c4)ccc23)ccn1` : growth came out at -25
